Target: Hsp90 (Homo sapiens, UniProt P07900)
Construct: The region encoding full-length Hsp90 was subcloned into pET28a; inferred from the pET28a vector and Ni-NTA purification; made in house; host or cells: E. coli
Assay: 3D-QSAR pharmacophore model Hypo1 (HypoGen) mapping and activity estimation
Details: test set
Text: HypoGen attempts to develop SAR hypothesis models from a set of molecules for which activities (IC50, Ki, etc.) on a given biological target have been measured. Based on the chemical features of compounds in the training set, we selected the following chemical functions in the feature dictionary: hydrogen bond acceptor (HBA), hydrogen bond donor (HBD), hydrophobic (HY), and hydrophobic aromatic (HYAr) groups. […]
READOUT_NAME: Errors
Answer with a number only.

Request: Which value of Errors has been reported for CS(=O)(=O)c1ccc(CNC2CCN(c3c[nH]nc3-c3cc(Br)c(O)cc3O)CC2)cc1 in the records?
Response: −1.8

Request: Which value of Errors has been reported for CCNC(=O)c1[nH]nc(-c2cc(Cl)c(O)cc2O)c1-c1cccc(CNCCN2CCOCC2)c1 in the records?
Response: 1.1

Request: Which value of Errors has been reported for CCNC(=O)c1cc2c(-c3cc(OCCNCCOC)c(Cl)cc3Cl)nc(N)nc2s1 in the records?
Response: −1.3

Request: Which value of Errors has been reported for CCNC(=O)c1noc(-c2cc(CCc3ccc(F)cc3)c(O)cc2O)c1-c1ccc(CN2CCOCC2)cc1 in the records?
Response: −1.4

Request: Which value of Errors has been reported for CCNC(=O)c1cc2c(-c3cc(OCCCN(C)C)c(Cl)cc3Cl)nc(N)nc2s1 in the records?
Response: −2.2

Request: Which value of Errors has been reported for COc1cccc(CNC(=O)c2c[nH]nc2-c2cc(Cl)c(O)cc2O)c1 in the records?
Response: −1.2

Request: Which value of Errors has been reported for CCNC(=O)c1noc(-c2cc(C(C)C)c(O)cc2O)c1-c1ccc(CN(CC)CC)cc1 in the records?
Response: −2.9

Request: Which value of Errors has been reported for COc1cccc(Sc2nc3c(N)ncnc3n2CCOC(C)C)c1 in the records?
Response: −1.1

Request: Which value of Errors has been reported for CNC(=O)c1noc(-c2cc(C(C)(C)C)c(O)cc2O)c1-c1ccc(CN2CCOCC2)cc1 in the records?
Response: −1.2

Request: Which value of Errors has been reported for CCNC(=O)c1[nH]nc(-c2cc(Cl)c(O)cc2O)c1-c1ccc(CN2CCOCC2)cc1 in the records?
Response: 1.1

Request: Which value of Errors has been reported for CCNC(=O)c1cc2c(-c3cc(OCCN4CCN(C)CC4)c(Cl)cc3Cl)nc(N)nc2s1 in the records?
Response: −2.9

Request: Which value of Errors has been reported for CCNC(=O)c1cc2c(-c3cc(OCCN(C)C)c(Cl)cc3Cl)nc(N)nc2s1 in the records?
Response: −3.6

Request: Which value of Errors has been reported for CCNC(=O)c1noc(-c2cc(-c3ccccc3F)c(O)cc2O)c1-c1ccc(CN2CCOCC2)cc1 in the records?
Response: −1.2

Request: Which value of Errors has been reported for C#CCCCn1c(Cc2cc(OC)c(OC)c(OC)c2)nc2c(N)nc(F)nc21 in the records?
Response: 1.0

Request: Which value of Errors has been reported for COC1C=CC=C(C)C(=O)NC2=CC(=O)C(NCCCCCCOc3ccc4c(=O)cc(N5CCOCC5)oc4c3)=C(CC(C)CC(OC)C(O)C(C)C=C(C)C1OC(N)=O)C2=O (stereo not shown) in the records?
Response: 1.2

Request: Which value of Errors has been reported for CCN(CC)CCOc1cc(-c2nc(N)nc3sc(C(=O)NCC(F)(F)F)cc23)c(Cl)cc1Cl in the records?
Response: −1.0
